Assay: Ex vivo pharmacokinetic assessment in the rat brain using LC-MS/MS
Conditions: 10 μg/kg intravenous, n = 3
EXPERIMENTAL_ENDPOINT: Mean peak concentration in the forebrain expressed as SUV

| COMPOUND | REPORTED_RESULT |
| --- | --- |
| COc1ccc(N2C(=O)CCc3cc(OCCCN4CCC[C@H]4C)ccc32)c(OC)c1 [TASP0410427] | 0.10 SUV |
| COc1ccc(N2C(=O)CCc3cc(OC4CCN(C5CCC5)CC4)ccc32)cn1 [TASP0410457] | 0.85 SUV |
| COc1cccc(N2C(=O)CCc3cc(OCCCN4CCC[C@H]4C)ccc32)c1 [TASP0390174] | 0.28 SUV |
| COc1ccc(N2C(=O)CCc3cc(OCCCN4CCC[C@H]4C)ccc32)cc1 [TASP0390136] | 0.30 SUV |
| COc1cc(F)cc(N2C(=O)CCc3cc(OCCCN4CCC[C@H]4C)ccc32)c1 [TASP0410426] | 0.30 SUV |
| COc1ccc(N2C(=O)CCc3cc(OC4CCN(C5CCC5)CC4)ccc32)cc1 [TASP0434988] | 0.58 SUV |

Provenance of the data: paper PMC4747952
